Just for reference, patent US4604401A is where these values come from.

As a worked illustration, we turn to MIC data collected for Streptococcus pyogenes C-203.
Numbers only, in µg/mL.

| compound | MIC / µg/mL |
| --- | --- |
| CCNCC1CCN(c2c(F)cc3c(=O)c(C(=O)O)cn(NC)c3c2F)C1 (stereo not shown) | 0.2 |
| CNn1cc(C(=O)O)c(=O)c2cc(F)c(N3CCC(N)C3)c(F)c21 (stereo not shown) | 0.8 |

Give one value of MIC per listed compound.
1. CCNCC1CCN(c2cc3c(cc2F)c(=O)c(C(=O)O)cn3NC)C1 (stereo not shown)
2. CNn1cc(C(=O)O)c(=O)c2cc(F)c(N3CCC(CN)C3)c(F)c21 (stereo not shown)

Response:
[0.4, 0.2]

---

# System: Klebsiella pneumoniae MGH-2
Hi there, I'd appreciate the recorded MIC for every entry that follows.
Please append the unit to your numeric answer.

| compound | MIC |
| --- | --- |
| CNn1cc(C(=O)O)c(=O)c2cc(F)c(N3CCC(N)C3)c(F)c21 (stereo not shown) | 0.2 µg/mL |
| CCNCC1CCN(c2cc3c(cc2F)c(=O)c(C(=O)O)cn3NC)C1 (stereo not shown) | 6.3 µg/mL |
| CNn1cc(C(=O)O)c(=O)c2cc(F)c(N3CCC(CN)C3)c(F)c21 (stereo not shown) | 1.6 µg/mL |

Prompt: Requested read-out: MIC. Entry: CCNCC1CCN(c2c(F)cc3c(=O)c(C(=O)O)cn(NC)c3c2F)C1 (stereo not shown)
Response: 0.2 µg/mL
